Cited source: ChEMBL document CHEMBL1126635

# Tested on: Salmonella typhimurium
# testMethodNotes: Mutagenicity in Salmonella Typhimurium TA98 was determined
# Format: functional, Salmonella enterica subsp. enterica serovar Typhimurium
# Log TA98 >= 3 gives label 1, anything below gives label 0

Illustrative cases are given below, each with its answer.
- COc1ccc2cc3c(ccc4oc([N+](=O)[O-])cc43)cc2c1: label 1
- O=[N+]([O-])c1cc2cc3c(cc2o1)CCCC3: label 0
- Cc1c([N+](=O)[O-])oc2ccc3ccccc3c12: label 1
- O=[N+]([O-])c1cc2cc(Cl)c3ccccc3c2o1: label 1

Attention now turns to another entry.
## Task # check: Log TA98 of Cc1c([N+](=O)[O-])oc2cc3c(cc12)CCCC3 is greater than or equal to 3
## Result label 1
